systemUnderTest: Ryanodine receptor 3 (Mus musculus)
assayNotes: Binding affinity to ryanodine receptor in Mus musculus albino Swiss-Webster (mouse) brain relative to ryanodine
measuredParameter: Ratio

>>> readoutvalue("C=C1CC[C@]2(O)[C@]3(C)C[C@]4(O)O[C@@]2([C@@H]1O)[C@]1(O)O[C@@]3(NN)[C@H](OC(=O)c2ccc[nH]2)[C@](O)(C(C)C)[C@@]14C")
14
>>> readoutvalue("C=C1CC[C@]2(O)[C@]3(C)C[C@]4(O)O[C@@]2([C@@H]1O)[C@]1(NNc2ccccc2)O[C@@]3(O)[C@H](OC(=O)c2ccc[nH]2)[C@](O)(C(C)C)[C@@]14C")
3.3
>>> readoutvalue("CC(C)[C@@]1(O)[C@@H](OC(=O)c2ccc[nH]2)[C@@H]2O[C@@]3(O)[C@]45O[C@@](O)(C[C@@]2(C)[C@@]4(O)CC[C@H](C)[C@H]5O)[C@]31C")
21
>>> readoutvalue("CC(C)[C@@]1(O)[C@@H](OC(=O)c2ccc[nH]2)[C@@]2(O)[C@@]3(C)C[C@]4(O)O[C@@]5([C@H](O)[C@@H](CSC(C)(C)C)CC[C@]35O)[C@@]2(O)[C@]14C")
0.41
>>> readoutvalue("CC(C)[C@@]1(O)[C@@H](OC(=O)c2ccc[nH]2)/C(=N/O)[C@@]2(C)C[C@]3(O)O[C@]4(C(=O)[C@]13C)[C@H](O)[C@@H](C)CC[C@@]42O")
0.78
